Exercise: for every item that follows, state its recorded (C) Safety index (%).
tested on: healthy, fed rats; test: Pharmacological safety index; type: in vivo, rat (male Sprague-Dawley); settings: lowering of glucose + triglycerides + cholesterol in per cent divided by increase of GPT activity + relative heart weight in per cent; higher = safer
Quick reminder: number only, in %, skip the unit.

# input compound: CCOC(=O)C1(CCCCCCOc2ccc(OC(F)F)cc2)CO1 (stereo not shown) ; wanted: its (C) Safety index (%) 5.74

# input compound: CCOC(=O)C1(CCCCCOc2ccc(OC(F)F)cc2)CO1 (stereo not shown) ; wanted: its (C) Safety index (%) 5.48

# input compound: CCOC(=O)C1(CCCCCOc2ccc(C(C)=O)cc2)CO1 (stereo not shown) ; wanted: its (C) Safety index (%) 56

# input compound: CCOC(=O)C1(CCCCCCOc2ccc(Cl)cc2)CO1 (stereo not shown) ; wanted: its (C) Safety index (%) 3.77

====

Exercise: for every item that follows, state its recorded (B) Relative weight of the heart (%), increase.
tested on: healthy, fed rats; test: Increase of relative weight of the heart (cardiac hypertrophy); type: in vivo, rat (male Sprague-Dawley); settings: weight of heart/100 g body weight, oral equimolar doses for 16 days, 24 hours after last administration
Quick reminder: number only, in %, skip the unit.

# input molecule: CCOC(=O)C1(CCCCCOc2ccc(C(C)=O)cc2)CO1 (stereo not drawn) ; wanted: its (B) Relative weight of the heart (%), increase −2

# input molecule: CCOC(=O)C1(CCCCCCOc2ccc(OC(F)F)cc2)CO1 (stereo not drawn) ; wanted: its (B) Relative weight of the heart (%), increase 14

# input molecule: CCOC(=O)C1(CCCCCCOc2ccc(Cl)cc2)CO1 (stereo not drawn) ; wanted: its (B) Relative weight of the heart (%), increase 14
